# experimental.system: human TLR8 (Homo sapiens)
# Sequence (Q9NR97 27-1041): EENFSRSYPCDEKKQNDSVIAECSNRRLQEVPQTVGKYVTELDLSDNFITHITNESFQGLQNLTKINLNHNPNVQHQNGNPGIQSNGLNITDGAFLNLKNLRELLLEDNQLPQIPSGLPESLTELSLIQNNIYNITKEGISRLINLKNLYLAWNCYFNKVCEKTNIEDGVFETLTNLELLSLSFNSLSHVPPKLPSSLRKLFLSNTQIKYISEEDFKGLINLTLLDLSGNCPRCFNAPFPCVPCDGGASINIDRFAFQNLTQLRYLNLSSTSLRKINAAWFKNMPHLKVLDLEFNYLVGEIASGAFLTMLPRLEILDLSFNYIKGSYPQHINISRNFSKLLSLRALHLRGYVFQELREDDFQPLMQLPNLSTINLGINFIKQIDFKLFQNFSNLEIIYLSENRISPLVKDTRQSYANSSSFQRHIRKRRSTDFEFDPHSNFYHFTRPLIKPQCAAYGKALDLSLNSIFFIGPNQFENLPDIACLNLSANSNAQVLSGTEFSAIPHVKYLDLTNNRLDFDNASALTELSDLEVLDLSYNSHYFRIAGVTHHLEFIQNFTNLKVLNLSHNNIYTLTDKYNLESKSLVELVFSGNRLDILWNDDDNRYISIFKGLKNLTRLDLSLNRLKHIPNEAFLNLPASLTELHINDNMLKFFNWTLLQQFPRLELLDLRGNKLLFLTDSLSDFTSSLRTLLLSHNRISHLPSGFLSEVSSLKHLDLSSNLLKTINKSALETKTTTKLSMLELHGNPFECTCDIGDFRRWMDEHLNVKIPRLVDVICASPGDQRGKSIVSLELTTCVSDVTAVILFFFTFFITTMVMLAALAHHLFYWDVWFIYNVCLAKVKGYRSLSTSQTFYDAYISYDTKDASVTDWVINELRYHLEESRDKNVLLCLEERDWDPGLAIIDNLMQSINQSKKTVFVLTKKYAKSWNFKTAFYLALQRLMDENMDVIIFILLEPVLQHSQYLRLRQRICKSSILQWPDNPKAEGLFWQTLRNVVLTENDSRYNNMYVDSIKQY
# procedure.text: In vitro human TLR8 reporter assay (HEK-Blue cells, NF-kB/AP1-inducible SEAP)
# test.context: HEK-Blue cells expressing TLR8, SEAP reporter; read-out: TLR8 Agonist EC50
# Procedure: In Vitro Human TLR7 and TLR8 Binding Reporter Assays Logarithmically-growing human HEK-Blue cells co-expressing a TLR7 or TLR8 gene and a NF-kB/AP1-inducible SEAP (secreted embryonic alkaline phosphatase; Invivogen, San Diego, Calif.) reporter gene are added to individual wells of a 384-well plate (15,000 cells per 20 μL per well) and maintained for 24 h at 37° C., 5% CO2. […] All EC50 values (half-maximal effective concentration) are determined using proprietary data analysis software. […]
quantity.kind: EC50

Q) Quick check: EC50 of `Nc1nc2cc(-c3cc[nH]n3)ccc2c2c1nc(CN1CC(F)(F)C1)n2CC(F)F` ?
A) 1 to 20 µM

---

# experimental.system: NLRP3 (Homo sapiens)
# Sequence (Q96P20 whole entry): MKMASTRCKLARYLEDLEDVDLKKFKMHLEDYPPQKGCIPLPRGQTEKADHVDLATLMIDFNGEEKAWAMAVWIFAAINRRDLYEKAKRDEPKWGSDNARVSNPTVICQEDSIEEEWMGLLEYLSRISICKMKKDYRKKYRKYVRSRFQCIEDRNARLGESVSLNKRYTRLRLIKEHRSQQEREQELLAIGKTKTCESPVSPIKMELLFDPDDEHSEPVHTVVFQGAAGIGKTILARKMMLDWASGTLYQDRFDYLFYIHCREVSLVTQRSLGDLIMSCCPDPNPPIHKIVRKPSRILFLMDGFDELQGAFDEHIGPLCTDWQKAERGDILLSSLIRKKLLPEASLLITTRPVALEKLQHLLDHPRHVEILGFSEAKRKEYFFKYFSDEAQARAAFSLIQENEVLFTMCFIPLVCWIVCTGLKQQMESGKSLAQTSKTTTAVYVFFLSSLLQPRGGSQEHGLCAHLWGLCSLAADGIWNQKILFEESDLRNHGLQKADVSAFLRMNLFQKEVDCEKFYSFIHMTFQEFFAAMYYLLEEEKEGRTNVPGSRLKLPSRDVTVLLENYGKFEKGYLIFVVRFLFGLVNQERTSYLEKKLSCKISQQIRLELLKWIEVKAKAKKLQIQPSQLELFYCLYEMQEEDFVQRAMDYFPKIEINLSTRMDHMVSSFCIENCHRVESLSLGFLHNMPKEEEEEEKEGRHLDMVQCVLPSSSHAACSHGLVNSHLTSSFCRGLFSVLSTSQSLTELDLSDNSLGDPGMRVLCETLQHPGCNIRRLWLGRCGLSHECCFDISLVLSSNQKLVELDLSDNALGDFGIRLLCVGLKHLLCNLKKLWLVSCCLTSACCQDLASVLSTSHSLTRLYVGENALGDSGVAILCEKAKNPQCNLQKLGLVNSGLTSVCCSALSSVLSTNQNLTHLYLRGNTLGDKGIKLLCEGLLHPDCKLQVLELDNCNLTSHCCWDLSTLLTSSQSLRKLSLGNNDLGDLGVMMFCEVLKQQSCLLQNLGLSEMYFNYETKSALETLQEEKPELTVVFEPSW
# procedure.text: Measurement of IL-1β production in PMA-differentiated THP-1 cells (NLRP3 hIL1B)
# test.context: read-out: NLRP3 hILIB IC50
quantity.kind: pIC50
Reminder that pIC50 means the negative base-10 logarithm of the concentration expressed in mol/L.

Study these solved cases before continuing.
[[record]]
line_notation = "COC1CN(Cc2nc3c(N)nc4cc(-c5cc[nH]n5)ccc4c3n2CC(F)F)C1"
meas_value = 6.66

[[record]]
line_notation = "Nc1nc2cc(-c3cc[nH]n3)ccc2c2c1nc(CN1CCC1)n2C1CC1"
meas_value = 6.74

[[record]]
line_notation = "CC(C)n1c(CN2CC(C)(O)C2)nc2c(N)nc3cc(-c4cc[nH]n4)ccc3c21"
meas_value = 5.96


Q) Looking for the measured pIC50 of `CC(C)n1c(CN2CC(C#N)C2)nc2c(N)nc3cc(-c4cc[nH]n4)ccc3c21` , can you help?
A) 6.20

Q) Next compound up: `Nc1nc2cc(-c3cc[nH]n3)ccc2c2c1nc(CN1CC3(CCCO3)C1)n2C1CC1`
A) 5.79

Q) And what about the compound `Nc1nc2cc(-c3cc[nH]n3)ccc2c2c1nc(CN1CC(O)C1)n2C1CC1` ?
A) 5.32

Q) Thanks! And `Nc1nc2cc(-c3cc[nH]n3)ccc2c2c1nc(CN1CC(F)(F)C1)n2CC(F)F` ?
A) 7.10

Q) Check `CC1(O)CN(Cc2nc3c(N)nc4cc(-c5cc[nH]n5)ccc4c3n2C2CCC2)C1` too.
A) 5.66

Q) Param item: `Nc1nc2cc(-c3cc[nH]n3)ccc2c2c1nc(CN1CC(F)C1)n2CC(F)F`
A) 6.66

---

pIC50 reference
# experimental.system: NLRP3 (Homo sapiens)
# procedure.text: Measurement of IL-1β production in PMA-differentiated THP-1 cells (NLRP3 hIL1B)
# test.context: read-out: NLRP3 hILIB IC50
As a rule, pIC50 stands for the negative log10 of the concentration, concentration in M.

Some solved entries appear below for comparison.
[[record]]
line_notation = "Nc1nc2cc(-c3cc[nH]n3)ccc2c2c1nc(CN1CC(F)(F)C1)n2C1CCC1"
experimental_system = "NLRP3 (Homo sapiens)"
meas_value = 6.70

[[record]]
line_notation = "COC1CN(Cc2nc3c(N)nc4cc(-c5cc[nH]n5)ccc4c3n2C2CCC2)C1"
experimental_system = "NLRP3 (Homo sapiens)"
meas_value = 6.92

[[record]]
line_notation = "Nc1nc2cc(-c3cc[nH]n3)ccc2c2c1nc(CN1CC(F)C1)n2C1CCC1"
experimental_system = "NLRP3 (Homo sapiens)"
meas_value = 6.59

[[record]]
line_notation = "COC1CN(Cc2nc3c(N)nc4cc(-c5cc[nH]n5)ccc4c3n2C2CC2)C1"
experimental_system = "NLRP3 (Homo sapiens)"
meas_value = 6.57

[[record]]
line_notation = "Nc1nc2cc(-c3cc[nH]n3)ccc2c2c1nc(CN1CC(F)C1)n2C1CC1"
experimental_system = "NLRP3 (Homo sapiens)"
meas_value = 6.60

[[record]]
line_notation = "Nc1nc2cc(-c3cc[nH]n3)ccc2c2c1nc(CN1CC3(CCCO3)C1)n2C1CCC1"
experimental_system = "NLRP3 (Homo sapiens)"
meas_value = 6.62


Query molecule follows.
Q) So what does the record say about pIC50 for `N#CC1CN(Cc2nc3c(N)nc4cc(-c5cc[nH]n5)ccc4c3n2C2CC2)C1` ?
A) 5.70
